- Tested on: 997726-040-R-J2-PDC tumor spheroids, viability
- Test Summary: Anticancer human tumor 997726-040-R-J2-PDC patient-derived squamous cell lung carcinoma cell line growth inhibition [PI3K]
- Condition Label: second compound 10 µM; first compound 0.0316 µM; hits give low values; spheroids with HUVEC and MSC
Observation Type: viability, T/C (%)

>>> val("CC1(C)CCC(CN2CCN(c3ccc(C(=O)NS(=O)(=O)c4ccc(NCC5CCOCC5)c([N+](=O)[O-])c4)c(Oc4cnc5[nH]ccc5c4)c3)CC2)=C(c2ccc(Cl)cc2)C1 + CC(Nc1ncnc2nc[nH]c12)c1cc2cccc(Cl)c2c(=O)n1-c1ccccc1")
55.7
>>> val("Cn1nccc1Nc1nccc(-c2ccn(C(CO)c3ccc(Cl)c(F)c3)c(=O)c2)n1 (stereo unspecified) + Cc1nc(NC(=O)N2CCCC2C(N)=O)sc1-c1ccnc(C(C)(C)C(F)(F)F)c1")
17.1
>>> val("CCCS(=O)(=O)Nc1ccc(F)c(C(=O)c2c[nH]c3ncc(-c4ccc(Cl)cc4)cc23)c1F + Cc1nc(NC(=O)N2CCCC2C(N)=O)sc1-c1ccnc(C(C)(C)C(F)(F)F)c1")
16.4
>>> val("C[C@@H](NC(=O)c1ncnc(N)c1Cl)c1ncc(C(=O)Nc2cc(C(F)(F)F)c(Cl)cn2)s1 + CC(Nc1ncnc2nc[nH]c12)c1cc2cccc(Cl)c2c(=O)n1-c1ccccc1")
61.4
>>> val("CC(C)NCC(C(=O)N1CCN(c2ncnc3c2C(C)CC3O)CC1)c1ccc(Cl)cc1 (stereo unspecified) + Cc1nc(NC(=O)N2CCCC2C(N)=O)sc1-c1ccnc(C(C)(C)C(F)(F)F)c1")
15.8
>>> val("CC(=O)c1c(C)c2cnc(Nc3ccc(N4CCNCC4)cn3)nc2n(C2CCCC2)c1=O + CC(Nc1ncnc2nc[nH]c12)c1cc2cccc(Cl)c2c(=O)n1-c1ccccc1")
41.8
>>> val("CC(C)n1nc(-c2ccc3oc(N)nc3c2)c2c(N)ncnc21 + CC(Nc1ncnc2nc[nH]c12)c1cc2cccc(Cl)c2c(=O)n1-c1ccccc1")
31.2
>>> val("Cn1ncc(Cl)c1-c1cc(C(=O)NC(CN)Cc2cccc(F)c2)sc1Cl (stereo unspecified) + Cc1nc(NC(=O)N2CCCC2C(N)=O)sc1-c1ccnc(C(C)(C)C(F)(F)F)c1")
15
>>> val("Cn1ncc(Cl)c1-c1cc(C(=O)NC(CN)Cc2cccc(F)c2)sc1Cl (stereo unspecified) + CC(Nc1ncnc2nc[nH]c12)c1cc2cccc(Cl)c2c(=O)n1-c1ccccc1")
51.5
>>> val("CC1(C)CCC(CN2CCN(c3ccc(C(=O)NS(=O)(=O)c4ccc(NCC5CCOCC5)c([N+](=O)[O-])c4)c(Oc4cnc5[nH]ccc5c4)c3)CC2)=C(c2ccc(Cl)cc2)C1 + Cc1nc(NC(=O)N2CCCC2C(N)=O)sc1-c1ccnc(C(C)(C)C(F)(F)F)c1")
14.8
>>> val("C=CC(=O)N1CCN(c2nc(=O)n(-c3c(C)ccnc3C(C)C)c3nc(-c4c(O)cccc4F)c(F)cc23)C(C)C1 (stereo unspecified) + CC(Nc1ncnc2nc[nH]c12)c1cc2cccc(Cl)c2c(=O)n1-c1ccccc1")
58.1

----------
- System: 997726-040-R-J2-PDC tumor spheroids, viability
- Test Summary: Anticancer human tumor 997726-040-R-J2-PDC cell line growth inhibition [PI3K];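 also: spheroids exposed to compounds for seven days before readout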
- Condition Label: second compound 0.316 µM; first compound 0.0316 µM; hits give low values; spheroids with HUVEC and MSC
Label true when viability, T/C is strictly below 40%; otherwise label false.

>>> class("CCN1CCN(Cc2ccc(Nc3ncc(F)c(-c4cc(F)c5nc(C)n(C(C)C)c5c4)n3)nc2)CC1 + CC(Nc1ncnc2nc[nH]c12)c1cc2cccc(Cl)c2c(=O)n1-c1ccccc1")
"false"
>>> class("C=CC(=O)N1CCN(c2nc(=O)n(-c3c(C)ccnc3C(C)C)c3nc(-c4c(O)cccc4F)c(F)cc23)C(C)C1 (stereo unspecified) + Cc1nc(NC(=O)N2CCCC2C(N)=O)sc1-c1ccnc(C(C)(C)C(F)(F)F)c1")
"false"
>>> class("CC1(C)CCC(CN2CCN(c3ccc(C(=O)NS(=O)(=O)c4ccc(NCC5CCOCC5)c([N+](=O)[O-])c4)c(Oc4cnc5[nH]ccc5c4)c3)CC2)=C(c2ccc(Cl)cc2)C1 + COc1c(OCCCN2CCOCC2)ccc2c3n(c(=NC(=O)c4cnc(N)nc4)nc12)CCN3")
"true"
>>> class("CC(C)n1nc(-c2ccc3oc(N)nc3c2)c2c(N)ncnc21 + CC(Nc1ncnc2nc[nH]c12)c1cc2cccc(Cl)c2c(=O)n1-c1ccccc1")
"false"
>>> class("CC1(C)CCC(CN2CCN(c3ccc(C(=O)NS(=O)(=O)c4ccc(NCC5CCOCC5)c([N+](=O)[O-])c4)c(Oc4cnc5[nH]ccc5c4)c3)CC2)=C(c2ccc(Cl)cc2)C1 + Cc1nc(NC(=O)N2CCCC2C(N)=O)sc1-c1ccnc(C(C)(C)C(F)(F)F)c1")
"false"
>>> class("C[C@@H](NC(=O)c1ncnc(N)c1Cl)c1ncc(C(=O)Nc2cc(C(F)(F)F)c(Cl)cn2)s1 + Cc1nc(NC(=O)N2CCCC2C(N)=O)sc1-c1ccnc(C(C)(C)C(F)(F)F)c1")
"false"
>>> class("Cn1ncnc1[C@H]1c2n[nH]c(=O)c3cc(F)cc(c23)N[C@@H]1c1ccc(F)cc1 + CC(Nc1ccc2c(c1)OCCn1cc(N3C(=O)OCC3C(F)F)nc1-2)C(N)=O")
"true"
>>> class("Cn1ncc(Cl)c1-c1cc(C(=O)NC(CN)Cc2cccc(F)c2)sc1Cl (stereo unspecified) + CC(Nc1ccc2c(c1)OCCn1cc(N3C(=O)OCC3C(F)F)nc1-2)C(N)=O")
"true"
>>> class("CC1(C)CCC(CN2CCN(c3ccc(C(=O)NS(=O)(=O)c4ccc(NCC5CCOCC5)c([N+](=O)[O-])c4)c(Oc4cnc5[nH]ccc5c4)c3)CC2)=C(c2ccc(Cl)cc2)C1 + CC(Nc1ccc2c(c1)OCCn1cc(N3C(=O)OCC3C(F)F)nc1-2)C(N)=O")
"true"
>>> class("CCCS(=O)(=O)Nc1ccc(F)c(C(=O)c2c[nH]c3ncc(-c4ccc(Cl)cc4)cc23)c1F + CC(Nc1ccc2c(c1)OCCn1cc(N3C(=O)OCC3C(F)F)nc1-2)C(N)=O")
"true"
>>> class("Cn1ncc(Cl)c1-c1cc(C(=O)NC(CN)Cc2cccc(F)c2)sc1Cl (stereo unspecified) + Cc1nc(NC(=O)N2CCCC2C(N)=O)sc1-c1ccnc(C(C)(C)C(F)(F)F)c1")
"false"
